assay: Retention time of the compound by RP-HPLC analysis; assay type: physicochemical
testReadout: Retention_time (min)

molecule COCCOc1cc2ncnc(Nc3cccc(-c4cn(CCCNC(=S)Nc5ccc(CC6CN(CC(=O)O)CCN(CC(=O)O)CCN(CC(=O)O)CCN6CC(=O)O)cc5)nn4)c3)c2cc1OCCOC (stereo unspecified) , Retention_time observed: 15.9

Retention_time recorded for this molecule, COCCOc1cc2ncnc(Nc3cccc(-c4cn(CCOCCOCCOCCN)nn4)c3)c2cc1OCCOC , is 15.9

Query COCCOc1cc2ncnc(Nc3cccc(-c4cn(CCOCCOCCOCCOCCOCCOCCNC(=S)Nc5ccc(CC6CN(CC(=O)O)CCN(CC(=O)O)CCN(CC(=O)O)CCN6CC(=O)O)cc5)nn4)c3)c2cc1OCCOC (stereo unspecified) yields Retention_time of 18.5

The molecule COCCOc1cc2ncnc(Nc3cccc(-c4cn(CCOCCOCCOCCNC(=S)Nc5ccc(CC6CN(CC(=O)O)CCN(CC(=O)O)CCN(CC(=O)O)CCN6CC(=O)O)cc5)nn4)c3)c2cc1OCCOC (stereo unspecified) showed Retention_time equal to 17.2

// Retention_time value for COCCOc1cc2ncnc(Nc3cccc(-c4cn(CCCN)nn4)c3)c2cc1OCCOC : 13.5

// sample COCCOc1cc2ncnc(Nc3cccc(-c4cn(CCOCCOCCOCCOCCOCCOCCN)nn4)c3)c2cc1OCCOC , its Retention_time was 17.4
